# tested_target: T1, TPR domain of AtToc64 with a C-terminal hexa-histidine tag (AtToc64_TPR-H6) (Arabidopsis thaliana, UniProt Q9LVH5 474-589)
# T1 chain: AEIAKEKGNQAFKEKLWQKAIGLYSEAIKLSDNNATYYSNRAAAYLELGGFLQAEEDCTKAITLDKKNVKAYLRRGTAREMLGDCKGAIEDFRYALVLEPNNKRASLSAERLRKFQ
# assay_info: ITC
Label T when Kd is strictly below 700 µM; otherwise label F.

[[record]]
binder = "GATIEEVD [Hsp70 C-terminal octapeptide, Pro118 to Ala (GATIEEVD)]"
assigned_label = "T"

[[record]]
binder = "APTIEEVD [Hsp70 C-terminal octapeptide, Gly117 to Ala]"
assigned_label = "F"

[[record]]
binder = "GPAIEEVD [Hsp70 C-terminal octapeptide, Thr119 to Ala (GPAIEEVD)]"
assigned_label = "F"

[[record]]
binder = "TARMEEVD [Hsp90 C-terminal octapeptide, Ser118 to Ala (TARMEEVD)]"
assigned_label = "T"

[[record]]
binder = "TSAMEEVD [Hsp90 C-terminal octapeptide, Arg119 to Ala (TSAMEEVD)]"
assigned_label = "T"

[[record]]
binder = "GPTAEEVD [Hsp70 C-terminal octapeptide, Ile120 to Ala (GPTAEEVD)]"
assigned_label = "F"

[[record]]
binder = "TSRAEEVD [Hsp90 C-terminal octapeptide, Met120 to Ala (TSRAEEVD)]"
assigned_label = "F"

[[record]]
binder = "TSRMEEVA [Hsp90 C-terminal octapeptide, Asp124 to Ala]"
assigned_label = "F"

[[record]]
binder = "TSRMEAVD [Hsp90 C-terminal octapeptide, Glu122 to Ala (TSRMEAVD)]"
assigned_label = "F"

[[record]]
binder = "ASRMEEVD [Hsp90 C-terminal octapeptide, Thr117 to Ala]"
assigned_label = "F"

